Values compiled from the supplement of paper PMC9732359.

# method-notes: protein stability index of a GFP-peptide fusion (yeast GPS) (PSI 1-4); higher = more stable; sorted into four equal gates, so the index is relative within each strain
# details: ubr1∆
outcome-measure: protein stability index
Give bare numbers.

The examples below pair each entry with its known result.
LVQLFLWDSKELEQLVE [RPN3]    2.85
KLSIAEERDRRRAQQGL [RPS4A]    1.6
KPAFSFGATTNDDKKTE [YJL041W/NSP1]    2.89

Hey, can you go through the list below and give me protein stability index for every item?
1. KFIALCEQQPSQEREFS [SIN4]
2. EINYAFSMDEEFKNMDC [SIR3]
3. GRENFVYANNPEVSDDG [SIR3]
4. NKSISDEITEDMFEMSD [SSN2]
5. ADNNDLQESINHVMYTE [ECM29]
6. SEIWDVSRGQSAVLLET [PRP8]
7. LLSLNSVRSLQKRIENG [SRP68]
8. YQTRARQKARTDAHTPL [RPR2]

[2.79, 3.25, 3.03, 3.1, 3.02, 2.04, 2.25, 3.27]

----------
# method-notes: protein stability index of a GFP-peptide fusion (yeast GPS) (PSI 1-4); higher = more stable; sorted into four equal gates, so the index is relative within each strain
# details: san1∆
outcome-measure: protein stability index
Answers are plain numbers.

I'm hoping you can list protein stability index for every sequence here, please.
1. TDQLIQNIETRQLANLI [NUT1]
2. APLAKVVFRDPYKYRLR [RPL2A]
3. LSEATESDLYKLKECPF [RPB2]
4. KSGKFCSHCGCVYVPNF [SNM1]
5. ADGSSYMEQGNNKIITL [SKI6]
6. STIDANFADKYDEVKKH [RPL8A]
7. ESVPTPANAEPQAVTIT [ITC1]

[2.94, 3.07, 3.23, 1.7, 2.82, 2.92, 2.62]

----------
# method-notes: protein stability index of a GFP-peptide fusion (yeast GPS) (PSI 1-4); higher = more stable; sorted into four equal gates, so the index is relative within each strain
# details: san1∆
Can you tell me protein stability index for the items I'm about to list?

KKSEEKLREKVNDVELA [MTW1]    3.05
LTLDPRYIWRSLKDLSS [RPN3]    2.82
GMGGGMPDMNEMMKMMQ [SRP54]    3.58
IKIVYALTTIKGVGRRY [RPS18A]    2.06
VIDGKLPFMQNAGPNSN [YDL088C/ASM4]    2.91
NTAPGLGNTVSTQPSFA [YGR119C/NUP57]    2.9
GRTGRAANEGTAVSFVS [PRP28]    2.81
YDEVKKHWGGGILGNKA [RPL8A]    3.44

Report protein stability index for each item below.
1. QPDENTKEMDEVEEDDE [SWI3]
2. EQTRTILSVKLAELINM [SRB6]
3. IHLYMLTFHTLKKANII [YLR018C/POM34]
4. DVMDELITSSARKELPI [SIR3]
5. WHIEETGEWFSSYEEFL [ITC1]
6. SEHVFDYFFYFLVLYDV [NUT1]

[3.53, 2.91, 1.21, 2.7, 2.59, 2.26]

----------
Answer each item with its documented protein stability index.
# method-notes: protein stability index of a GFP-peptide fusion (yeast GPS) (PSI 1-4); higher = more stable; sorted into four equal gates, so the index is relative within each strain
# details: ubr1∆

Answered examples (8):
LTTAREHHSSVKYASPN [FAS2]    3.06
LQHLRSRCHLVTKDTKK [SRP68]    3.12
VLDKMHARARGPRAVLT [RET1]    3.09
SRGGVTQVRVEFLEDTS [RPS28A]    3.22
NDLRDMILNYNPSQGVS [UBP6]    3.18
YGFKQEIFDVTSNGLKK [FAS1]    2.89
KCQTCQEGMNECPGHFG [RPO21]    3.26
KKDQSVLKSHSNDFEEG [YMR129W/POM152]    2.95

// each sequence listed below needs its protein stability index
1. TVRVDKASTYGELVLDI [SNF12]
2. SSEFVSQDTKVICSVTG [RRP46]
3. KTSSQTSLSSKDLSNYR [YMR153W/NUP53]
4. KGDGMTSAVASIGSIYQ [RPN1]

[1.81, 2.58, 2.65, 3.03]

Okay, here is my list. What is protein stability index for each of these?
1. TGVSVEAVDDVFQAKMM [RPN11]
2. VKCKMSALQQIMYQQML [SNF2]

2.87
2.8

----------
# method-notes: protein stability index of a GFP-peptide fusion (yeast GPS) (PSI 1-4); higher = more stable; sorted into four equal gates, so the index is relative within each strain
# details: pdr5∆
outcome-measure: protein stability index
Numbers only.

Use the examples below as a reference point.
FAISMGYLFKVSALDKC [ECM29]    1.67
ALRGMFKDRFKDEPVQN [FAS2]    3.43
KDVLAQTSVTTNFNEIT [SWP82]    2.75
KENFILDSLMKTTRLLL [YJL039C/NUP192]    1.64
DCLDKLLNDECTESTRE [SNF2]    3.4

Dear colleague, could you please provide protein stability index for the sequences listed below?
1. TNGNNAGGGSNKSSVRP [MED6]
2. TESIALSSMRFKPSQEP [RRI1]

1. 3.47
2. 3.31

----------
# method-notes: protein stability index of a GFP-peptide fusion (yeast GPS) (PSI 1-4); higher = more stable; sorted into four equal gates, so the index is relative within each strain
# details: doa10∆
Field: protein stability index. Provide a value for each of the sequences that follow.
Numbers only.

// solved cases for protein stability index follow
DEINTAQDKWHLLPAFL [RET1]    3.51
QIRSADEPMTTFYKCVN [RPC11]    2.26
ETEEIDPELLRSYIFGG [RPL5]    3.22
GKAKGDIPGVRFKVVKV [RPS23A]    3.32

Quick batch: protein stability index for everything below.
1. IHLYMLTFHTLKKANII [YLR018C/POM34]
2. LSEATESDLYKLKECPF [RPB2]
3. ELLLTTLSVSHGINLQN [SSN2]
4. IHQNAGRLLRAMFEICL [BRR2]
5. SNTVNANNYSSNIGNNS [YDL088C/ASM4]
6. KIQVVDRHIGCVYSGLI [PRE10]
7. SDPLTVFSESCSNESFA [SNU114]
8. PRFNRDNKVSPAAAAKK [RPS26B]

1: 1.31; 2: 3.12; 3: 1.89; 4: 1.85; 5: 3.17; 6: 1.28; 7: 2.83; 8: 2.41

Please report protein stability index for every entry that follows.
1. NGVNVQIDQLNRLLPNL [GRR1]
2. HNGAPHHAIEEAESLLQ [RPO21]

1: 2.86; 2: 3.07

----------
# method-notes: protein stability index of a GFP-peptide fusion (yeast GPS) (PSI 1-4); higher = more stable; sorted into four equal gates, so the index is relative within each strain
# details: doa10∆
Decision: protein stability index >= 3 yields TRUE, all other cases yield FALSE.

See these solved cases before continuing.
WKFKSLIEILRLRALQL [RRI2]    FALSE
GVTSLGIKATNGVVIAT [PRE8]    FALSE
QVGDGLEILIVTKDGVR [PRE7]    FALSE
LIARRDDESPRFVMPNQ [RRP6]    TRUE
GSNQQSSTGGGLFGNKP [YGR119C/NUP57]    TRUE

Threshold query (protein stability index >= 3) on KRADISKRRITEELSIT [SMC1]
FALSE

Assess whether reported protein stability index for VPSTTNVNMTVNTMGTG [MED6] sits at 3 or higher.
TRUE

----------
Hi there, I'd appreciate the recorded protein stability index for every entry that follows.
# method-notes: protein stability index of a GFP-peptide fusion (yeast GPS) (PSI 1-4); higher = more stable; sorted into four equal gates, so the index is relative within each strain
# details: ubr1∆
One number for each entry.

WCQEAFPSSETTSLNPI [BRR2]    3.23
RAPELLLGARHYTPAVD [SSN3]    1.56
TISSKPDILATDLIREK [YCS4]    3.09
SGDESNVISSKDWELEA [YDL116W/NUP84]    3.41

Provide the reported protein stability index of each entry below, same order.
1. PSFGKRHNKSHTLCNRC [RPL37A]
2. SMDVDDKNSGVKSEVDV [ITC1]

[2.68, 2.5]

----------
Field: protein stability index. Provide a value for each of the sequences that follow.
# method-notes: protein stability index of a GFP-peptide fusion (yeast GPS) (PSI 1-4); higher = more stable; sorted into four equal gates, so the index is relative within each strain
# details: ubr1∆
Numbers only.

FELCSLGDKELWPVAIG [YJR042W/NUP85]    2.49
NNPDMMIQPPQQGQNMS [ROX3]    3.14
HTATDIYQTLIALNLDT [SNF2]    1.93

Can you give me protein stability index for all of these, one by one?
1. TSDSESTLYKYLKESKR [SWI3]
2. VVGQLFQIDNDNIRYAT [SMC2]
3. QPVNINLDSSITQDGKF [YMR129W/POM152]
4. GAIKPFTPKLIYDFITL [ECM29]
5. IALNLASKKFGKICLIL [SSN2]
6. PYPKSRYNRAVPDSKIR [RPL10]
7. EPVKEYTFKTSMRVKPS [YMR129W/POM152]
8. KLYTFLARRTDAPFNKV [RPL18A]

[2.74, 2.88, 3.04, 1.36, 3.12, 3.04, 3.48, 1.89]

// batch mode: one protein stability index value per listed entry
1. GTWSAKEAVFKSLGVKS [FAS2]
2. IQTVVISLLALPHSPLW [YML031W/NDC1]
3. NNNPLQQQSSQNTVPNV [GAL11]

[2.88, 2, 2.82]
